We begin with a simple list: items and their reported Glucuronidation.
organism: Homo sapiens; settings: Liver, Microsome
Description: Glucuronidation in human liver microsomes was determined

>  <smiles_text>
Cc1ccc(Nc2ncnn3cc(NC(=O)OCCCn4nccn4)c(C(C)C)c23)cc1O

>  <Glucuronidation>
0.9 nmol/min/mg

$$$$
>  <smiles_text>
COCCCNC(=O)c1cn2ncnc(Nc3ccc(C)c(O)c3)c2c1C

>  <Glucuronidation>
0.16 nmol/min/mg

$$$$
>  <smiles_text>
Cc1ccc(Nc2ncnn3cc(C(=O)NCCCn4nccn4)c(C)c23)cc1O

>  <Glucuronidation>
0.21 nmol/min/mg

$$$$
>  <smiles_text>
Cc1ccc(Nc2ncnn3cc(NC(=O)NCCCN4CCCCC4)c(C(C)C)c23)cc1O

>  <Glucuronidation>
0.04 nmol/min/mg

$$$$
>  <smiles_text>
Cc1ccc(Nc2ncnn3cc(NC(=O)OCCCN4CCCCC4)c(C(C)C)c23)cc1O

>  <Glucuronidation>
0.08 nmol/min/mg

$$$$
>  <smiles_text>
Cc1ccc(Nc2ncnn3cc(C(=O)NCCCN4CCCC4)c(C(C)C)c23)cc1O

>  <Glucuronidation>
0.02 nmol/min/mg

$$$$
>  <smiles_text>
Cc1ccc(Nc2ncnn3cc(OCCCN4CCCCC4)c(C(C)C)c23)cc1O

>  <Glucuronidation>
0.03 nmol/min/mg

$$$$
>  <smiles_text>
Cc1ccc(Nc2ncnn3cc(C(=O)NCCCN4CCOCC4)c(C)c23)cc1O

>  <Glucuronidation>
0.01 nmol/min/mg

$$$$

###

assay: Maximum plasma concentration in mouse after 50 mg/kg oral dosage; type: ADME, organism-based; design: dose 50 mg/kg, route oral
value_kind: Cmax

>  <smiles_text>
Cc1ccc(Nc2ncnn3cc(C(=O)NCCCN4CCCC4)c(C(C)C)c23)cc1O

>  <obs_value>
166 nM

$$$$

###

target: Vascular endothelial growth factor receptor 2 (Homo sapiens, UniProt P35968)
Sequence (P35968 whole entry): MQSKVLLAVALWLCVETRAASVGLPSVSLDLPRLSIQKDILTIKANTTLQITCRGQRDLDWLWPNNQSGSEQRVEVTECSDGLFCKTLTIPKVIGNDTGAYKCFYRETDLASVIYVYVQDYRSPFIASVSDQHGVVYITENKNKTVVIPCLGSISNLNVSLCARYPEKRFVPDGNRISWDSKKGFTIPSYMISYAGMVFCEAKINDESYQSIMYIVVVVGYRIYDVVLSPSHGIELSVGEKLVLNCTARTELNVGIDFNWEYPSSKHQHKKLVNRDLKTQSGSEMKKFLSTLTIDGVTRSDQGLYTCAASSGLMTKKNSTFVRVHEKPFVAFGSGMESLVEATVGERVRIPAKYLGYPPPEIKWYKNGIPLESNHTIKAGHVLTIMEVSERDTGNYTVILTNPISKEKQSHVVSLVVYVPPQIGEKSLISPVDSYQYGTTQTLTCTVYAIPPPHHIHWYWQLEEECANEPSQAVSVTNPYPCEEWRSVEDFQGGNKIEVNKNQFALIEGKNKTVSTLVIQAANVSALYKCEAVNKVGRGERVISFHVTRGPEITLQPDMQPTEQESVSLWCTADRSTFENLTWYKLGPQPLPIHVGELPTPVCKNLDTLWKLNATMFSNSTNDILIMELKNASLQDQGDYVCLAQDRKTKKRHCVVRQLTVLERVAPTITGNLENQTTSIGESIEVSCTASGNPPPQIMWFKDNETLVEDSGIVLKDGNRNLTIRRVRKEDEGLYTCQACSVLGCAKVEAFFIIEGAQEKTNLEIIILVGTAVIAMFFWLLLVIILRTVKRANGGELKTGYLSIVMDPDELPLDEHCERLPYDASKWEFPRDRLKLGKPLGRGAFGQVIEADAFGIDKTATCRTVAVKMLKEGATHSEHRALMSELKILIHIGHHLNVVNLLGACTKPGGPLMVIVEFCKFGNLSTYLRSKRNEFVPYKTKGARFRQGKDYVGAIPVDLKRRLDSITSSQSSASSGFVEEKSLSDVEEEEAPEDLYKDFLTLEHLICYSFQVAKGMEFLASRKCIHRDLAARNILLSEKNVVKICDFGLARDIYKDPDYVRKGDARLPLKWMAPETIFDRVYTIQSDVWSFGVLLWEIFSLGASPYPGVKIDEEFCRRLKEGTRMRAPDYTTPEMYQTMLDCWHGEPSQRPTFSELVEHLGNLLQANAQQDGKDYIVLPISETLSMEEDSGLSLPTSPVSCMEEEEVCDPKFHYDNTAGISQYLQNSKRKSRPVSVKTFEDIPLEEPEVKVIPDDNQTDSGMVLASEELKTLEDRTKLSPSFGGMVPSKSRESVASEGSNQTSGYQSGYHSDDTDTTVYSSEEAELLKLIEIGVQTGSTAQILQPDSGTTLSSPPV
value_kind: IC50 (nM)

>  <smiles_text>
COC(=O)c1cn2ncnc(Nc3ccc(C)c(O)c3)c2c1C

>  <value_kind>
IC50

>  <uom>
nM

>  <obs_value>
10

$$$$
>  <smiles_text>
COC(=O)c1cn2ncnc(Nc3cccc(O)c3)c2c1C

>  <value_kind>
IC50

>  <uom>
nM

>  <obs_value>
61

$$$$
>  <smiles_text>
COC(=O)c1cn2ncnc(Nc3ccc(C(C)C)c(O)c3)c2c1C

>  <value_kind>
IC50

>  <uom>
nM

>  <obs_value>
380

$$$$
>  <smiles_text>
Cc1ccc(Nc2ncnn3cc(C(=O)NCCCn4nccn4)c(C)c23)cc1O

>  <value_kind>
IC50

>  <uom>
nM

>  <obs_value>
30

$$$$
>  <smiles_text>
COC(=O)c1cn2ncnc(Nc3ccc(C)c(O)c3)c2c1C(C)(C)C

>  <value_kind>
IC50

>  <uom>
nM

>  <obs_value>
310

$$$$
>  <smiles_text>
CCOC(=O)c1cn2ncnc(Nc3ccc(C)c(O)c3)c2c1OCC

>  <value_kind>
IC50

>  <uom>
nM

>  <obs_value>
64

$$$$
>  <smiles_text>
CCc1ccc(Nc2ncnn3cc(C(=O)OC)c(C)c23)cc1O

>  <value_kind>
IC50

>  <uom>
nM

>  <obs_value>
55

$$$$
